System: Glomerella lagenarium (Colletotrichum lagenarium)
Assay: Glomerella lagenarium (Colletotrichum lagenarium) liquid culture / cucumber / preventative (anthracnose)
Format: cell-based
Conditions: Colletotrichum orbiculare; 20 ppm in the applied formulation; conidia in PDB nutrient broth, 24° C.; 3 to 4 days after application; compared to untreated; read-out: disease control (inhibition of growth measured photometrically)
quantity.name: inhibition at 20 ppm

Query string: # query: inhibition at 20 ppm | item CS(=O)(=O)N(Cc1ccc(-c2noc(C(F)(F)F)n2)cc1)C1CC1 | system: Glomerella lagenarium (Colletotrichum lagenarium)
Result string: ≥ 80%

Query string: # query: inhibition at 20 ppm | item CCS(=O)(=O)NCc1ccc(-c2noc(C(F)(F)F)n2)cc1F | system: Glomerella lagenarium (Colletotrichum lagenarium)
Result string: ≥ 80%

Query string: # query: inhibition at 20 ppm | item CCCN(Cc1ccc(-c2noc(C(F)(F)F)n2)cc1)S(=O)(=O)N1CCCC1 | system: Glomerella lagenarium (Colletotrichum lagenarium)
Result string: ≥ 80%

Query string: # query: inhibition at 20 ppm | item CN(Cc1ccc(-c2noc(C(F)(F)F)n2)cc1)S(=O)(=O)c1ccn(C)n1 | system: Glomerella lagenarium (Colletotrichum lagenarium)
Result string: ≥ 80%
